The values you see were collected from PubChem BioAssay.

Biological target: Concanavalin-A (Canavalia ensiformis) (UniProt P02866)
Sequence (P02866 whole entry, looked up): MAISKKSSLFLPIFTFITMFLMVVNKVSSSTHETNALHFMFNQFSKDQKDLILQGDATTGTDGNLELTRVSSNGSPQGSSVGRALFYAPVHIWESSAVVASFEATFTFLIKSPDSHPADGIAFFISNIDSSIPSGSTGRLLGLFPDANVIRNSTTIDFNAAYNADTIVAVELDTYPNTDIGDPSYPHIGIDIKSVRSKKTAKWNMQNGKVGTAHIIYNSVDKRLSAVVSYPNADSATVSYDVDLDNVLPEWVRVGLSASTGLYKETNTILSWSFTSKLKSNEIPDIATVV
Experiment: ConA small-molecule binders, primary screen, artefact control for SMM control protein annotation, biochemical, small-molecule microarray, Alexa647 label, 635 nm (AID 1127)
Conditions: ConA-A647 binding fluorescence, higher = more signal
Think of 0.3 as a floor: if composite z-score stands on it or above, it is True; beneath it, False.

>>> print(df.to_string())
                                   compound                                    target  class_assignment
0  COC(=O)[C@@H]1CC[C@H](C)[C@@H](c2ccc(C)cc2)N1C(=O)c1ccc(C=NOC[C@@H](C)[C@H](OCc2ccccc2)C(C)C)cc1  Concanavalin-A (Canavalia ensiformis) (UniProt P02866)              True
1  CC(CCN1CCCc2nc(C)c(C)cc21)=NOC(C)CN1CCCCc2nc(C)c(C)cc21 (stereo not drawn)  Concanavalin-A (Canavalia ensiformis) (UniProt P02866)              True
2  CO[C@H](C1CCCCC1)[C@H](C)C=CCC(=O)OCCCc1ccccc1  Concanavalin-A (Canavalia ensiformis) (UniProt P02866)             False
3  Cc1cc2c(c(=O)o1)[C@@H](O)[C@H]1O[C@H]1C2=O  Concanavalin-A (Canavalia ensiformis) (UniProt P02866)              True
4  CC(C)=CCCC(C)=CCON=C1C[C@@H](O)[C@@H](O)[C@@H]2[C@@H]3C(=O)N(C4CCCCC4)C(=O)[C@@H]3CC[C@@H]12  Concanavalin-A (Canavalia ensiformis) (UniProt P02866)             False
5  COC(=O)CC=C[C@@H](C)[C@@H](C=NOCC[C@@H]1C=C[C@H](OC(C)=O)[C@@H](COC(C)=O)O1)OC  Concanavalin-A (Canavalia ensiformis) (UniProt P02866)             False
6   C=CC1=C[C@H](O)[C@@H]2O[C@@H]2C12OCCCO2  Concanavalin-A (Canavalia ensiformis) (UniProt P02866)              True
